- Test system: EKVX
- testProtocol: relative viability (nuclei count vs DMSO), 5 days (fraction); higher = more cells survive
- conditionSummary: first compound 0.2 µM
assayReadout: relative viability
Could you respond with only the numeric value?

# compound, relative viability
data = [
    ("COCC1(CO)C(=O)C2CCN1CC2 (configuration not stated) [PRIMA-1MET] + COc1cc2c(Oc3ccc(NC(=O)C4(C(=O)Nc5ccc(F)cc5)CC4)cc3F)ccnc2cc1OCCCN1CCOCC1 [Foretinib] (partner 0.25 µM)", 0.988),
]

## Task Form field: reported relative viability of COCC1(CO)C(=O)C2CCN1CC2 (configuration not stated) [PRIMA-1MET] + Nc1ncn([C@H]2C[C@H](O)[C@@H](CO)O2)c(=O)n1 [Decitabine] (partner 2 µM)
## Result 0.407

## Task Dear colleague, I am looking for the recorded relative viability of the following compound: COCC1(CO)C(=O)C2CCN1CC2 (configuration not stated) [PRIMA-1MET] + Cc1cc(Nc2cc(N3CCN(C)CC3)nc(Sc3ccc(NC(=O)C4CC4)cc3)n2)n[nH]1 [Tozasertib] (partner 0.1 µM)
## Result 0.452

## Task I am curious: what relative viability value has been reported for COCC1(CO)C(=O)C2CCN1CC2 (configuration not stated) [PRIMA-1MET] + COc1cccc2cc(-c3nc([C@H]4CC[C@H](C(=O)O)CC4)n4ncnc(N)c34)[nH]c12 [OSI-027] (partner 0.5 µM) ?
## Result 0.915

## Task Requested field: relative viability. Item: COCC1(CO)C(=O)C2CCN1CC2 (configuration not stated) [PRIMA-1MET] + O=C(c1cc(Cc2n[nH]c(=O)c3ccccc23)ccc1F)N1CCN(C(=O)C2CC2)CC1 [Olaparib] (partner 8 µM)
## Result 1.01

## Task Name the reported relative viability value associated with the compound COCC1(CO)C(=O)C2CCN1CC2 (configuration not stated) [PRIMA-1MET] + CC(=O)c1c(C)c2cnc(Nc3ccc(N4CCNCC4)cn3)nc2n(C2CCCC2)c1=O [Palbociclib] (partner 0.5 µM)
## Result 0.42

## Task Which relative viability value belongs to COCC1(CO)C(=O)C2CCN1CC2 (configuration not stated) [PRIMA-1MET] + NC(=O)Nc1cc(-c2cccc(F)c2)sc1C(=O)N[C@H]1CCCNC1 [AZD7762] (partner 0.2 µM) ?
## Result 0.72

====

- System: LCLC-103H
- testProtocol: relative viability (nuclei count vs DMSO), 5 days (fraction); higher = more cells survive
- conditionSummary: first compound 0.08 µM
Items are presented alongside their recorded relative viability.
Please reply with the number alone, leaving off any unit.

# molecule, measuredTarget, relative viability
data = [
    ("COc1nc(C)cnc1NS(=O)(=O)c1cccnc1-c1ccc(-c2nnco2)cc1 [Zibotentan] + O=C(CCCCCCC(=O)Nc1ccccc1)NO [Vorinostat] (partner 1 µM)", "LCLC-103H", 0.801),
    ("O=c1cc(-c2cccc3c2Sc2ccccc2S3)oc(N2CCOCC2)c1 + Cc1nc(Nc2ncc(C(=O)Nc3c(C)cccc3Cl)s2)cc(N2CCN(CCO)CC2)n1 [Dasatinib] (partner 0.075 µM)", "LCLC-103H", 0.416),
    ("COc1nc(C)cnc1NS(=O)(=O)c1cccnc1-c1ccc(-c2nnco2)cc1 [Zibotentan] + C[C@@H](Oc1cc(-c2cnn(C3CCNCC3)c2)cnc1N)c1c(Cl)ccc(F)c1Cl [Crizotinib] (partner 1 µM)", "LCLC-103H", 0.932),
]

## Task Any idea what relative viability was measured for COc1nc(C)cnc1NS(=O)(=O)c1cccnc1-c1ccc(-c2nnco2)cc1 [Zibotentan] + Cc1nc(Nc2ncc(C(=O)Nc3c(C)cccc3Cl)s2)cc(N2CCN(CCO)CC2)n1 [Dasatinib] (partner 0.075 µM) ?
## Result 0.47

## Task Returns the measured relative viability for the input molecule. Input: O=c1cc(-c2cccc3c2Sc2ccccc2S3)oc(N2CCOCC2)c1 + COc1cc2c(Oc3ccc(NC(=O)C4(C(=O)Nc5ccc(F)cc5)CC4)cc3F)ccnc2cc1OCCCN1CCOCC1 [Foretinib] (partner 0.25 µM)
## Result 0.721

Reference source: the supplement of paper PMC10307832
